# GI50 listing for each entry below
# System: IGROV-1
# assay summary: NCI tumour cell line growth inhibition, 48 h
Calls of active or inactive are those of the source. Cut-off read from the data, not from the text of the source: active = GI50 up to about 1.1 µM and inactive = higher.

| molecule | measured value |
| --- | --- |
| Oc1ccc2ccccc2c1/C=C/c1ccc2c(Br)cc(Br)c(O)c2n1 | 2.17 µM (inactive) |
| O=c1c(C(c2cnc3ccccc3c2)c2c(O)oc3ccccc3c2=O)c(O)oc2ccccc12 | > 100 µM (inactive) |
| CCn1cc(/C=C/C(C)c2cn(CC)c(=O)[nH]c2=O)c(=O)[nH]c1=O (stereo not given) | > 100 µM (inactive) |
| Cc1ccc2c(ccc(/C=C/c3ccc(O)c4ncccc34)[n+]2C)c1 | 15.8 µM (inactive) |

# evaluate next
input: Please indicate GI50 recorded for "CCCCNC(=S)N/C=C1\C(=O)Oc2ccccc2C1=O"
output: 35.4 µM (inactive)

* * *

# Test system: PC-3
# assay summary: NCI tumour cell line growth inhibition, 48 h
Active and inactive are the calls of the source. Rule as the data show it: active = GI50 up to about 1.1 µM and inactive = higher. Bridge positions count the residues as written; N and C are the ends. Square brackets hold non-standard residues; d marks the D form. Peptide text beside a SMILES is read from it. * marks the point of attachment. Cya = N[CH](CS(=O)(=O)O)C(=O)O; X49 = CC(C)CCCCCCCC(O)CC(=O)*; GABA = NCCCC(=O)O
measured quantity: GI50

Some entries whose results are on file:
| molecule | GI50 |
| --- | --- |
| CC(C)CCCCCCCC(O)CC(=O)NC(CS(=O)(=O)O)C(=O)NC(CC(C)C)C(=O)NCCCC(=O)NC(Cc1c[nH]cn1)C(=O)NC(C)C(=O)NC1C(=O)NC(C(C)O)C(=O)NC(Cc2c[nH]cn2)C(=O)NC(C)C(=O)NC(C(C)O)C(=O)OC1C (stereo not drawn) (X49-[Cya]L[GABA]HATTHAT; ester 6-C; configuration not given here) | > 25 µM (inactive) |
| Oc1c(C2=N[C@H]3CCCC[C@@H]3N2)ccc2ccccc12 | > 100 µM (inactive) |
| Cc1cc(OCc2nc(N)nc(N)c2-c2ccc(Cl)c(Cl)c2)ccc1[N+](=O)[O-] | 0.467 µM (active) |
| OC(c1ccco1)C(F)(F)c1nc2ccccc2o1 (stereo not drawn) | > 100 µM (inactive) |
| OCc1ccc(-c2ccc(-c3ccc(CO)s3)o2)s1 | 44.5 µM (inactive) |

input: Please indicate GI50 recorded for "O=C(c1ccccc1)c1ccc2c(c1)NC(=O)c1ccccc1SSc1ccccc1C(=O)N2"
output: > 100 µM (inactive)

input: Please indicate GI50 recorded for "CC(=O)OC/C=C\Cn1nc(Br)c(=O)[nH]c1=O"
output: 13.2 µM (inactive)

input: Please indicate GI50 recorded for "Cc1nc2c(C)ccc([N+](=O)[O-])c2c(NCCCN(C)C)c1C"
output: 11.7 µM (inactive)

* * *

# Test system: SF-539
# assay summary: NCI tumour cell line growth inhibition, 48 h
Activity calls are given as the source filed them. No stated cut-off is given here; in the data, active = GI50 up to about 1.1 µM and inactive = higher.
measured quantity: GI50

Some entries whose results are on file:
| molecule | GI50 |
| --- | --- |
| Cc1c2c(nc3ccccc13)C(=O)c1cccnc1C2=O | 5.41 µM (inactive) |
| Cc1ccccc1C1=[N+]([O-])c2ccccc2C1=O | 19.1 µM (inactive) |

input: Give measured GI50 for "CN(C)C1(c2cc3ccccc3s2)CCCCC1" (SF-539).
output: 50.1 µM (inactive)

input: Give measured GI50 for "CC(=O)c1sc2c(c1OC(=O)c1ccccc1)c(=O)n(-c1ccccc1)c(=S)n2-c1ccccc1" (SF-539).
output: 2.32 µM (inactive)

* * *

# Tested on: SK-MEL-28
# assay summary: NCI tumour cell line growth inhibition, 48 h
Active and inactive are the calls of the source. Rule as the data show it: active = GI50 up to about 1.1 µM and inactive = higher.
measured quantity: GI50

Some entries whose results are on file:
| molecule | measured value |
| --- | --- |
| Cc1cc(S(=O)(=O)Nc2nc(N)n(-c3ccccc3)n2)c(S)cc1Cl | > 100 µM (inactive) |
| O=C1C2=C(C3=NCCc4c[nH]c1c43)C1(C=C(Br)C(O)C(Br)=C1)CCN2 (stereo unspecified) | 7.69 µM (inactive) |
| COc1cc(O)c2c(c1)OCC(Cc1ccc(O)cc1)C2=O (stereo unspecified) | > 100 µM (inactive) |
| CCn1cc(/C=C/C(C)c2cn(CC)c(=O)[nH]c2=O)c(=O)[nH]c1=O (stereo unspecified) | > 100 µM (inactive) |
| COc1cc(CC(=O)c2ccc3c(c2)OCO3)cc(OC)c1OC | > 100 µM (inactive) |
| CCOC(=O)N1CCN(C(=O)Nc2cccc3ccccc23)CC1 | > 10 µM (inactive) |
| CSc1nc(Cl)c(Br)c(Nc2cnc(O)nc2O)n1 | 29.5 µM (inactive) |
| Cc1ccc2c(ccc(/C=C/c3ccc(O)c4ncccc34)[n+]2C)c1 | 10.3 µM (inactive) |
| CSc1ccc(NC(=O)C2CCCCC2C(=O)O)cc1 (stereo unspecified) | > 100 µM (inactive) |
| N/C(=N\O)N/N=C/c1cc(I)cc(I)c1O | 49.2 µM (inactive) |

# evaluate next
input: Please indicate GI50 recorded for "O=[N+]([O-])c1cccc(/C=N/N=c2\ccc3ccccc3[nH]2)c1O"
output: 2.79 µM (inactive)

* * *

# System: SK-MEL-5
# assay summary: NCI tumour cell line growth inhibition, 48 h
Calls of active or inactive are those of the source. No stated cut-off is given here; in the data, active = GI50 up to about 1.1 µM and inactive = higher.
Please state which outcome applies, choosing from active, inactive

input: For O=C(CC(C(=O)c1ccsc1)c1ccccc1)c1cccs1 (stereo unspecified) , what call appears in the results of this test?
output: inactive

input: For "COc1ccc(-c2nc3ccccc3s2)cc1OC" , what call appears in the results of this test?
output: inactive

input: For COc1ccc(C2CCc3cc4c(cc3/C2=N/OC(C)=O)OCO4)cc1OC (stereo unspecified) , what call appears in the results of this test?
output: inactive

input: For "O=C/C(=C(/Cl)c1ccc(O)cc1)c1ccccc1" , what call appears in the results of this test?
output: inactive

input: For "CC(C)=CCC/C(C)=C/Cc1cc(/C=C/c2cc(O)c(CC=C(C)C)c(O)c2)cc(O)c1O" , what call appears in the results of this test?
output: inactive

input: For "Cc1ccccc1C1=[N+]([O-])c2ccccc2C1=O" , what call appears in the results of this test?
output: inactive

input: For "CCOC(=O)c1csc(-c2cn(C)c3c2C(=O)C(OC)=CC3=O)n1" , what call appears in the results of this test?
output: inactive

input: For "COC(=O)[C@@H]1C(=O)O[C@@H](c2ccc3c(c2)OCO3)[C@@H]1C(=O)OC.COC(=O)[C@H]1C(=O)O[C@@H](c2ccc3c(c2)OCO3)[C@@H]1C(=O)OC" , what call appears in the results of this test?
output: inactive

input: For CN(C)CCN(C)C(=O)C1CCCN1C(=O)OCc1ccccc1 (stereo unspecified) , what call appears in the results of this test?
output: inactive

input: For Cc1cccc(NC2=NC(=O)C(CC(=O)Nc3ccccc3Cl)S2)c1 (stereo unspecified) , what call appears in the results of this test?
output: inactive

input: For "COC(=O)NCCc1n[nH]c2c1C(=O)C=C(N1CCOCC1)C2=O" , what call appears in the results of this test?
output: inactive

input: For "CCCNC1=NC(C)=CSC(Nc2ccccc2)=C1C#N" , what call appears in the results of this test?
output: inactive

* * *

# System: HOP-92
# assay summary: NCI tumour cell line growth inhibition, 48 h
Active and inactive are the calls of the source. No stated cut-off is given here; in the data, active = GI50 up to about 1.1 µM and inactive = higher.
measured quantity: GI50

Some entries whose results are on file:
| compound | GI50 |
| --- | --- |
| COc1ccc2oc(=O)c(-c3nc4ccccc4o3)cc2c1 | > 100 µM (inactive) |
| CC(C)=CCC/C(C)=C/CC/C(C)=C/CC/C=C(\C)CC/C=C(\C)CCC1SC1(C)C (stereo not given) | 64 µM (inactive) |
| C=CCNC1=C2C[C@@H](C)C[C@@H](OC)C(OC(=O)CCCN(C)C)[C@H](C)/C=C(\C)[C@@H](OC(N)=O)[C@H](OC)/C=C\C=C(/C)C(=O)NC(=CC1=O)C2=O (stereo not given in full) | 17.7 µM (inactive) |
| COc1ccc(N2CCN(c3ccc4c(c3)NCC(=O)N4)CC2)cc1 | 23.5 µM (inactive) |

# evaluate next
input: Please indicate GI50 recorded for "CC(=N\N)/C(C)=N/N=C(C)/C(C)=N/N=C(C)/C(C)=N/N"
output: > 100 µM (inactive)

* * *

# Test system: K562
# assay summary: NCI tumour cell line growth inhibition, 48 h
The source made the active and inactive calls. Cut-off read from the data, not from the text of the source: active = GI50 up to about 1.1 µM and inactive = higher.
# GI50 listing for each entry below

Some entries whose results are on file:
| compound | measured value |
| --- | --- |
| CC(Cl)CN1c2ccccc2Sc2ccc(Cl)cc21 (stereo unspecified) | > 10 µM (inactive) |
| CCOC(=O)/C=C/[C@H](O)[C@@H](O)/C=C/C(=O)OCC | 10.6 µM (inactive) |
| COc1ccc(OC)c(NC(=O)C2=C(C)NC(C)=C(C(=O)Nc3cc(OC)ccc3OC)C2c2ccccc2)c1 | 83 µM (inactive) |
| Cc1c(C(=O)O)n2c(C)nnc2c2ccccc12 | > 100 µM (inactive) |
| CCCCCCCCCCCCCCCCOC(=O)C(C(=O)OCCCCCCCCCCCCCCCC)[N+](C)(C)CCOC(C)=O | 19.5 µM (inactive) |
| COc1cc(C=C2N=C(c3ccccc3)N(n3c(-c4ccccc4)nc4ccccc4c3=O)C2=O)cc(OC)c1OC | 45.8 µM (inactive) |
| O=C1[C@H]2C(c3ccccc3)=NN(C(=O)c3ccccc3)[C@H]2C(=O)N1c1ccccc1 | > 100 µM (inactive) |
| Cc1cn(C2CC(OC(c3ccccc3)(c3ccccc3)c3ccccc3)C(COC(c3ccccc3)(c3ccccc3)c3ccccc3)O2)c(=O)[nH]c1=O (stereo unspecified) | 38.6 µM (inactive) |

# evaluate next
input: Please indicate GI50 recorded for "O=C(O)c1ccc2[nH]c(=O)oc2c1"
output: > 100 µM (inactive)
